Source listed as patent US20060234940A1.

target.or.test.system: T1, recombinant human DP IV, mutation W629A (human, UniProt P27487 37-766)
T1 construct: range 37-766; Same Pichia construct as the wild type, single mutation by site-directed mutagenesis; also called mu 16 DP IV; mu 16
T1 sequence (P27487 other isoform, or with tags, fused parts or gaps W629A W629A limits assumed): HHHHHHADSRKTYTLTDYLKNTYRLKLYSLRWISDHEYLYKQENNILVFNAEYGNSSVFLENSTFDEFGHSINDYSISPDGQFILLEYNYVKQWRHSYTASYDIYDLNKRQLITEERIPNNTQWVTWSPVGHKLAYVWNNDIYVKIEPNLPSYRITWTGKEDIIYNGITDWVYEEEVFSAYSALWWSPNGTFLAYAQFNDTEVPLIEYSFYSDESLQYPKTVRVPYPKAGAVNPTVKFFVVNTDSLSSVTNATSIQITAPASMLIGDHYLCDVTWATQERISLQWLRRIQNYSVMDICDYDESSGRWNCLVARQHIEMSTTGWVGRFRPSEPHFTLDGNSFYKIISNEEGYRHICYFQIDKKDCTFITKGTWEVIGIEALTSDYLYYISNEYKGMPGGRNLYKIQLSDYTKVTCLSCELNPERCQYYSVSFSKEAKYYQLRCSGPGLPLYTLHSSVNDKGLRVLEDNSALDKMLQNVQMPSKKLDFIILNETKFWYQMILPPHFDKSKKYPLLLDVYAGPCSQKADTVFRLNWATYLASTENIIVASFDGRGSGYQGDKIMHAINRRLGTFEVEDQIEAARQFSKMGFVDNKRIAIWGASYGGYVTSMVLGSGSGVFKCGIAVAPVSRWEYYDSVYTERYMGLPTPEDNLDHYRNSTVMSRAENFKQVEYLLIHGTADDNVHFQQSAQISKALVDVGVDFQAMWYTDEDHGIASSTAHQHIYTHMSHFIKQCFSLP
assay.comment: photometric assay, competition with the standard substrate GP-4NA
Where no end group is shown, it is not given here. The star is where a group is joined. Thia = thiazolidide, C1CN(*)CS1
Can you tell me Ki for the items I'm about to list?
Only the number, expressed in nM, is required.

Briefly, Ki measured for RRLSYSRRRFE-Thia (also: linkage of decapeptide to Glu not explained) [Transp 01 (RRLSYSRRRF-E-Thia)] : 85.5

Per the record, YAESTF-NH2 [YAESTF amide] has Ki of 1060
